Molecular target: LXRα full length (FL) (Homo sapiens)
Construct: the full length (FL) proteins of LXRα (amino acids 1-447); NP005684
Sequence (Q13133 1-447): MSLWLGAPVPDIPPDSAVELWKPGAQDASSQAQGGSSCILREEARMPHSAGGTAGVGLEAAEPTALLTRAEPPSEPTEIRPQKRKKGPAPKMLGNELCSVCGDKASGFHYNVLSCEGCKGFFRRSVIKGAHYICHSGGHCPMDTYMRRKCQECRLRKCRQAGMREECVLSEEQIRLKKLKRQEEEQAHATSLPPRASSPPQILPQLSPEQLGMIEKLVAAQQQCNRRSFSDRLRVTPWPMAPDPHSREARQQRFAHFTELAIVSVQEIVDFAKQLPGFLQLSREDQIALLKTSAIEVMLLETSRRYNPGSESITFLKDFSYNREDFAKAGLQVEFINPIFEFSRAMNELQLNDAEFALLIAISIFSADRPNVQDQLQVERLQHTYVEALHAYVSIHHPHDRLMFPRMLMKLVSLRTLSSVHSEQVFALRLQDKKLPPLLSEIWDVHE
Test: LXR Gal4 reporter transient transfection assay (M2H), Gal4α FL
Conditions: HEK293 cells; read-out: M2H Gal4α FL activity range (EC50)
Reported EC50 values for a set of compounds

What value of EC50 has been reported for the following compound? `Cc1ccc2ccccc2c1S(=O)(=O)N(Cc1ccc(-c2cccc(S(=O)(=O)CC(=O)O)c2)cc1)Cc1cccc(C(F)(F)F)c1`
100 to 1000 nM

What value of measured EC50 is listed for `Cc1ccc2ccccc2c1S(=O)(=O)N(Cc1ccc(-c2cccc(C(C)(C)C(=O)O)c2)cc1)Cc1ccc(C(F)(F)F)o1` ?
< 100 nM

// returns reported EC50 for input `COc1ccc(S(=O)(=O)N(Cc2ccc(-c3cccc(S(=O)(=O)CC(=O)O)c3)cc2)Cc2ccc(C(F)(F)F)o2)c2c1CCCC2`
100 to 1000 nM

Using the record for `O=C(O)CS(=O)(=O)c1cccc(-c2ccc(CN(Cc3ccc(C(F)(F)F)o3)S(=O)(=O)c3c(Cl)cccc3C(F)(F)F)cc2)c1` , report its EC50.
1000 to 10000 nM

Item under review: `Cc1ccc2cccnc2c1S(=O)(=O)N(Cc1ccc(-c2cccc(C(C)(C)C(=O)NO)c2)cc1)Cc1ccc(C(F)(F)F)o1` . Reported EC50?
< 100 nM

Which EC50 value belongs to `Cc1cc(C)c(S(=O)(=O)N(Cc2ccc(-c3cc(F)c(CO)c(S(=O)(=O)CC(=O)O)c3)cc2)Cc2ccc(C(F)(F)F)o2)c(C)c1` ?
100 to 1000 nM

---

Target: LXRα full length (FL) (Homo sapiens, UniProt Q13133)
Construct: the full length (FL) proteins of LXRα (amino acids 1-447); NP005684
Test: LXR Gal4 reporter transient transfection assay (M2H), Gal4α FL
Conditions: HEK293 cells; read-out: M2H Gal4α FL activity range (EC50)
The molecules listed here are annotated with their EC50.

molecule	target.of.assay	result
Cc1cc(C)c(S(=O)(=O)N(Cc2ccc(-c3cccc(S(=O)(=O)CC(=O)O)c3)cc2)Cc2cccc(C(F)(F)F)c2)c(C)c1	LXRα full length (FL) (Homo sapiens, UniProt Q13133)	1 to 10 µM
Cc1cc(C)c(S(=O)(=O)N(Cc2ccc(-c3cccc(S(=O)(=O)CC(=O)O)c3)cc2)C(C)(C)c2ccc(C(F)(F)F)o2)c(C)c1	LXRα full length (FL) (Homo sapiens, UniProt Q13133)	1 to 10 µM
Cc1cc(C)c(S(=O)(=O)N(Cc2ccc(-c3cccc(C(C)(C)C(=O)O)c3)cc2)Cc2ccc(C(F)(F)F)o2)c(C)c1	LXRα full length (FL) (Homo sapiens, UniProt Q13133)	< 0.1 µM
Cc1cc(C)c(S(=O)(=O)N(Cc2ccc(C(F)(F)F)o2)Cc2ccc(-c3cccc(C(C)(C)C(=O)O)c3)cc2Cl)c(C)c1	LXRα full length (FL) (Homo sapiens, UniProt Q13133)	< 0.1 µM
COc1cc(-c2cccc(C(C)(C)C(=O)O)c2)ccc1CN(Cc1ccc(C(F)(F)F)o1)S(=O)(=O)c1c(C)cc(C)cc1C	LXRα full length (FL) (Homo sapiens, UniProt Q13133)	< 0.1 µM

Any idea what EC50 came out for `Cc1cc(F)cc(C)c1S(=O)(=O)N(Cc1ccc(-c2cccc(S(=O)(=O)CC(=O)O)c2)cc1)Cc1ccc(C(F)(F)F)o1` on LXRα full length (FL) (Homo sapiens, UniProt Q13133)?
1 to 10 µM

Record lookup: for LXRα full length (FL) (Homo sapiens, UniProt Q13133), what EC50 belongs to `COc1ccc2cccnc2c1S(=O)(=O)N(Cc1ccc(-c2cccc(C(C)(C)C(=O)O)c2)cc1)Cc1ccc(C(F)(F)F)o1` ?
< 0.1 µM

Give EC50 (LXRα full length (FL) (Homo sapiens, UniProt Q13133)) of the following molecule: `Cc1sc2ccccc2c1S(=O)(=O)N(Cc1ccc(-c2cccc(C(C)(C)C(=O)O)c2)cc1)Cc1ccc(C(F)(F)F)o1`
< 0.1 µM

Checklist item: EC50 tested on LXRα full length (FL) (Homo sapiens, UniProt Q13133), entry `Cc1cc(C)c(S(=O)(=O)N(Cc2ccc(-c3cccc(S(=O)(=O)CC(=O)O)c3)cc2)Cc2ccc(F)cc2Cl)c(C)c1` , value?
1 to 10 µM

Test system LXRα full length (FL) (Homo sapiens, UniProt Q13133); read-out EC50; what value for `Cc1cc(C)c(S(=O)(=O)N(CCc2ccc(C(F)(F)F)o2)Cc2ccc(-c3cccc(S(=O)(=O)CC(=O)O)c3)cc2)c(C)c1` ?
1 to 10 µM

Which EC50 is reported with LXRα full length (FL) (Homo sapiens, UniProt Q13133) for this entry: Cc1ccc2ccccc2c1[S+]([O-])N(Cc1ccc(-c2cccc(C(C)(C)C(=O)O)c2)cc1)Cc1ccc(C(F)(F)F)o1 (stereo not shown) ?
< 0.1 µM

Which EC50 is reported with LXRα full length (FL) (Homo sapiens, UniProt Q13133) for this entry: `Cc1cc(C)c(S(=O)(=O)N(Cc2ccc(-c3cccc(S(=O)(=O)CC(=O)O)c3)cc2)Cc2ccc(C(F)F)o2)c(C)c1` ?
1 to 10 µM

Provide value of EC50 for this record tested with LXRα full length (FL) (Homo sapiens, UniProt Q13133): `Cc1cc(C)c(S(=O)(=O)N(Cc2ccc(-c3cccc(S(=O)(=O)CC(=O)O)c3)cc2)Cc2ccccc2C(F)(F)F)c(C)c1`
0.1 to 1 µM
